Values compiled from patent US12077539B2.

- TARGET UNDER TEST: KRAS G12C (Homo sapiens, UniProt P01116, G12C)
- Sequence (P01116 1-188 isoform P01116-2 G12C): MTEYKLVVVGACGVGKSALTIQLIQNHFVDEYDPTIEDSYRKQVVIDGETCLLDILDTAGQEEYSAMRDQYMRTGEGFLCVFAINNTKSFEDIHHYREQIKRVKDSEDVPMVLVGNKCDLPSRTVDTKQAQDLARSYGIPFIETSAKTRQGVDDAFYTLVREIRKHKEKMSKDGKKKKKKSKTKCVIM
- ASSAY REMARKS: GDP-GTP exchange assay, KRAS G12C (bodipy-GDP/GppNHp, SOS1)
- RUN PARAMETERS: bodipy-loaded KRAS G12C 2.5 nM, 2 hours pre-incubation, 2 hours exchange with GppNHp and SOS1; read-out: G12C_exchange (KRAS_G12C exchange assay IC50)
Listed here are compounds together with their documented IC50.
READOUT NAME: IC50

compound=CC#CC(=O)N1CC[C@H](n2cnc3c(O[C@@H](C)[C@@H]4CCCN4C)nc4c(=O)n(-c5cccc(Cl)c5C)c(C(F)(F)F)cc4c32)C[C@H]1CC#N readout_value="≤ 0.1 µM"
compound=CC#CC(=O)N1CC[C@H](n2cnc3c(N4CC(N(C)C)C4)nc4c(=O)n(-c5cc(O)cc6ccccc56)ccc4c32)C[C@H]1CC#N readout_value="≤ 0.1 µM"
compound=Cc1c(Cl)cccc1-n1c(C(F)(F)F)cc2c(nc(N3CC(C)(N(C)C)C3)c3nnn([C@H]4CCN(C(=O)/C=C/CF)[C@H](CC#N)C4)c32)c1=O readout_value="≤ 0.1 µM"
compound=C=CC(=O)N1CC[C@H](n2cnc3c(O[C@@H](C)[C@@H]4CCCN4C)nc4c(=O)n(-c5cccc(Cl)c5C)c(C(F)(F)F)cc4c32)C[C@H]1CC#N readout_value="≤ 0.1 µM"
compound=C=CC(=O)N1CC[C@H](n2cnc3c(N4CC(N(C)C)C4)nc4c(=O)n(-c5cc(O)cc6ccccc56)ccc4c32)C[C@H]1CC#N readout_value="≤ 0.1 µM"
compound=C=CC(=O)N1CC[C@H](n2cnc3c(N4CC(N(C)C)C4)nc4c(c32)CCN(c2cccc3ccccc23)C4)C[C@H]1CC#N readout_value="0.1 to 1 µM"
compound=C=CC(=O)N1CC[C@H](n2cnc3c(N4CC(N(C)C)C4)nc4c(c32)CCN(c2cc(O)cc3ccccc23)C4)C[C@H]1CC#N readout_value="≤ 0.1 µM"
compound="C=CC(=O)N1CCC(n2cnc3c(-c4cccnc4C)nc4c(=O)n(-c5cccc6ccccc56)c(C(F)(F)F)cc4c32)C[C@H]1CC#N (some centres unmarked)" readout_value="≤ 0.1 µM"
compound=C=CC(=O)N1CC[C@H](n2cnc3c(N4CC(N(C)C)C4)nc4c(=O)n(-c5cccc6ccccc56)c(C(F)(F)F)cc4c32)C[C@H]1CC#N readout_value="≤ 0.1 µM"
compound=C=C(F)C(=O)N1CC[C@H](n2cnc3c(O[C@@H](C)[C@@H]4CCCN4C)nc4c(=O)n(-c5cccc(Cl)c5C)c(C(F)(F)F)cc4c32)C[C@H]1CC#N readout_value="≤ 0.1 µM"
compound=C=CC(=O)N1CC[C@H](n2nnc3c(N4CC(C)(N(C)C)C4)nc4c(=O)n(-c5cccc(Cl)c5C)c(C(F)(F)F)cc4c32)C[C@H]1CC#N readout_value="≤ 0.1 µM"
